# Target Desc: human APJ receptor (Homo sapiens)
# Construct: expressed in transfected cells
# Procedure Summary: Intracellular cAMP accumulation assay (APJ hcAMP, HTRF)
# Format: cell-based
# Test Parameters: Table 1; HEK293 cells stably expressing human APJ receptor; inhibition of forskolin-mediated cAMP production; read-out: APJ hcAMP EC50
pEC50: −log10 of the molar value.
Result Type: pEC50

Some solved cases for reference:
[[record]]
compound = "COC[C@@H](NC(=O)c1ccc(-c2c(Cl)cccc2-c2nc3ccccc3[nH]2)c(C(=O)O)c1)C1CC1 [Example 230]"
target_desc = "human APJ receptor (Homo sapiens)"
meas_value = "6.30 to 7.00"

[[record]]
compound = "CCC[C@@H](NC(=O)c1ccc(-c2cc(Cl)ccc2-c2nc3cc(OC)ccc3[nH]2)c(-c2nc(=O)o[nH]2)c1)c1ccccc1 [Example 8]"
target_desc = "human APJ receptor (Homo sapiens)"
meas_value = "7.00 to 8.00"

[[record]]
compound = "CCC[C@@H](NC(=O)c1ccc(-c2cc(F)ccc2-c2nc3ccccc3[nH]2)c(C(=O)O)c1)c1ccccc1 [Example 33]"
target_desc = "human APJ receptor (Homo sapiens)"
meas_value = "> 8.00"


State the recorded pEC50 for this entry: CCCC(NC(=O)c1ccc(-c2c(Cl)cccc2-c2nc3ccccc3[nH]2)c(C(=O)O)c1)c1ccccn1 (single isomer, unassigned) [Example 175] > 8.00

Return reported pEC50; argument: COc1cc2[nH]c(-c3cccc(Cl)c3-c3ccc(C(=O)NCc4ccccc4)cc3C(=O)O)nc2cc1F [Example 119] 7.00 to 8.00

Look up pEC50 for this compound: CCCC(NC(=O)c1ccc(-c2c(Cl)cccc2-c2nc3ccccc3[nH]2)c(C(=O)O)c1)c1ccc(Cl)cc1F (single isomer, unassigned) [Example 182] > 8.00

----------
# Target Desc: human APJ receptor (Homo sapiens, UniProt P35414)
# Construct: expressed in transfected cells
# Sequence (P35414 1-380): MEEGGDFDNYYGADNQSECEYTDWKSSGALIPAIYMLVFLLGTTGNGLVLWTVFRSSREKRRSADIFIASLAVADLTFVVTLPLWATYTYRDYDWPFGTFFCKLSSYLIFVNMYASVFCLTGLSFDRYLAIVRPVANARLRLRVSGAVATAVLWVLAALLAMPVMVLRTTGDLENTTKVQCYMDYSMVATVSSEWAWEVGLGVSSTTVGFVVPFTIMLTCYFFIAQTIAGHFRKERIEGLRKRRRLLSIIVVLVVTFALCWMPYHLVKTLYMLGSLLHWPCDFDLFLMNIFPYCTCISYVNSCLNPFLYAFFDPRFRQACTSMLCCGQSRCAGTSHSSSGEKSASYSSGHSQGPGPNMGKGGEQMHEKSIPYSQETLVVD
# Procedure Summary: Intracellular cAMP accumulation assay (APJ hcAMP, HTRF)
# Type: cell-based
# Test Parameters: human APJ, cAMP; potency range class; read-out: APJ cAMP Human EC50
Result Type: EC50

Completed entries (count: 3):
[[record]]
molecule = "CCCC(NC(=O)c1ccc(-c2c(Cl)cccc2-c2nc3ccccc3[nH]2)c(C(=O)O)c1)c1ccc(Cl)cc1OC (single isomer, unassigned) [Example 164]"
result_type = "EC50"
meas_value = "< 10 nM"

[[record]]
molecule = "CCCC(NC(=O)c1ccc(-c2c(Cl)cccc2-c2nc3ccccc3[nH]2)c(C(=O)O)c1)c1cccc(Cl)c1 (stereo not drawn) [Example 167]"
result_type = "EC50"
meas_value = "< 10 nM"

[[record]]
molecule = "CCCC(NC(=O)c1ccc(-c2c(Cl)cccc2-c2nc3ccccc3[nH]2)c(C(=O)O)c1)c1cncs1 (stereo not drawn) [Example 194]"
result_type = "EC50"
meas_value = "10 to 100 nM"


Give EC50 (human APJ receptor (Homo sapiens, UniProt P35414)) of the following molecule: CCCC(NC(=O)c1ccc(-c2c(Cl)cccc2-c2nc3cc(OC)c(F)cc3[nH]2)c(C(=O)O)c1)C1CCCC1 (single isomer, unassigned) [Example 195] < 10 nM

Query EC50 on human APJ receptor (Homo sapiens, UniProt P35414) for CCCC(NC(=O)c1ccc(-c2c(Cl)cccc2-c2nc3ccccc3[nH]2)c(C(=O)O)c1)c1ccc(Cl)cc1F (single isomer, unassigned) [Example 182] < 10 nM

Find the measured EC50: item COc1cc2nc(-c3cccc(Cl)c3-c3ccc(C(=O)N[C@H](c4ccc(F)cc4)C4CC4)cc3C(=O)O)[nH]c2cc1F [Example 232] , target or system human APJ receptor (Homo sapiens, UniProt P35414). < 10 nM
